system: Escherichia coli; assay: Antibacterial activity against Escherichia coli ATCC 25922 after 3 to 4 days by serial plate dilution method; format: functional; further: test concentration or dose not given here
Tick t if diameter of the inhibition zone (DIZ) is 20 mm or greater. Tick f if diameter of the inhibition zone (DIZ) is less than 20 mm.

- COc1ccc2[nH]cc(/C=N/Nc3cc(C(F)(F)F)nc4c(C(F)(F)F)cccc34)c2c1: t
- FC(F)(F)c1cc(N/N=C/c2ccc3c(c2)CCO3)c2cccc(C(F)(F)F)c2n1: t
- COc1ccccc1NC(=O)NNc1cc(C(F)(F)F)nc2c(C(F)(F)F)cccc12: t

*Q* Record Oc1cc(F)ccc1/C=N/Nc1cc(C(F)(F)F)nc2c(C(F)(F)F)cccc12 ; criterion: diameter of the inhibition zone (DIZ) no lower than 20 mm. Met?
*A* t

*Q* Is it the case that CCCCCNC(=O)NNc1cc(C(F)(F)F)nc2c(C(F)(F)F)cccc12 has diameter of the inhibition zone (DIZ) reaching or exceeding 20 mm?
*A* f

*Q* Hi team, for FC(F)C(F)(F)Oc1cccc(/C=N/Nc2cc(C(F)(F)F)nc3c(C(F)(F)F)cccc23)c1 , is the recorded diameter of the inhibition zone (DIZ) at or above 20 mm?
*A* t

---

tested on: Pseudomonas aeruginosa; assay: Antibacterial activity against Pseudomonas aeruginosa ATCC 27853 after 3 to 4 days by serial plate dilution method; assay type: functional; details: Pseudomonas aeruginosa, ATCC 27853
attribute measured: MIC (µg/mL)
One number for each entry, in µg/mL.

- O=C1CC(c2ccncc2)=NN1c1cc(C(F)(F)F)nc2c(C(F)(F)F)cccc12: 12.5
- Cc1cccc2c(/C=N/Nc3cc(C(F)(F)F)nc4c(C(F)(F)F)cccc34)c[nH]c12: 6.25
- COCCNC(=S)NNc1cc(C(F)(F)F)nc2c(C(F)(F)F)cccc12: 12.5
- Fc1ccccc1NC(=S)NNc1cc(C(F)(F)F)nc2c(C(F)(F)F)cccc12: 50
- COc1ccc(/C=N/Nc2cc(C(F)(F)F)nc3c(C(F)(F)F)cccc23)c(F)c1: 6.25

Proceed to the following item.
*Q* Determine its reported MIC: FC(F)(F)Oc1cccc(/C=N/Nc2cc(C(F)(F)F)nc3c(C(F)(F)F)cccc23)c1
*A* 6.25

---

tested on: Escherichia coli; assay: Antibacterial activity against Escherichia coli ATCC 25922 after 3 to 4 days by serial plate dilution method; format: functional; further: test concentration or dose not given here
attribute measured: diameter of the inhibition zone (DIZ) (mm)
Answers are plain numbers, in mm.

Provide diameter of the inhibition zone (DIZ) values for the following items, in order.
1. O=C(NNc1cc(C(F)(F)F)nc2c(C(F)(F)F)cccc12)Nc1ccc(F)cc1
2. CC1=NN(c2cc(C(F)(F)F)nc3c(C(F)(F)F)cccc23)C(=O)C1
3. Cn1nnc2cc(/C=N/Nc3cc(C(F)(F)F)nc4c(C(F)(F)F)cccc34)ccc21

*A*
10
22
20

---

system: Escherichia coli; test: Antibacterial activity against Escherichia coli ATCC 25922 after 3 to 4 days by serial plate dilution method; assay type: functional; further: test concentration or dose not given here
attribute measured: diameter of the inhibition zone (DIZ) (mm)
Answers are plain numbers, in mm.

Recorded diameter of the inhibition zone (DIZ), per entry:
* Cc1nc[nH]c1/C=N/Nc1cc(C(F)(F)F)nc2c(C(F)(F)F)cccc12 | 26
* O=C(O)c1cn(C2CC2)c2cc(N3CCNCC3)c(F)cc2c1=O | 28
* FC(F)(F)c1cc(N/N=C/c2c[nH]cn2)c2cccc(C(F)(F)F)c2n1 | 25
* Cn1cc(Cl)c(/C=N/Nc2cc(C(F)(F)F)nc3c(C(F)(F)F)cccc23)n1 | 24
* Cc1cccc2c(/C=N/Nc3cc(C(F)(F)F)nc4c(C(F)(F)F)cccc34)c[nH]c12 | 27

Look up diameter of the inhibition zone (DIZ) for the entries below, preserving their order.
1. COc1ccc(/C=N/Nc2cc(C(F)(F)F)nc3c(C(F)(F)F)cccc23)c(F)c1
2. FC(F)(F)c1cc(N/N=C/c2cccnc2)c2cccc(C(F)(F)F)c2n1

*A*
1. 25
2. 24

---

Exercise: for every item that follows, state its recorded MIC.
tested on: Pseudomonas aeruginosa; experiment: Antibacterial activity against Pseudomonas aeruginosa ATCC 27853 after 3 to 4 days by serial plate dilution method; assay type: functional; details: Pseudomonas aeruginosa, ATCC 27853
Give bare numbers, in µg/mL.

Consider the following illustrative entries.
• FC(F)(F)c1cc(N/N=C/c2c[nH]cn2)c2cccc(C(F)(F)F)c2n1 = 6.25
• Oc1cc(F)ccc1/C=N/Nc1cc(C(F)(F)F)nc2c(C(F)(F)F)cccc12 = 12.5
• COc1ccccc1NC(=O)NNc1cc(C(F)(F)F)nc2c(C(F)(F)F)cccc12 = 6.25

Hi, could you look up MIC for each item in my list?
1. O=C1CC(c2ccccc2)=NN1c1cc(C(F)(F)F)nc2c(C(F)(F)F)cccc12
2. CC1=NN(c2cc(C(F)(F)F)nc3c(C(F)(F)F)cccc23)C(=O)C1
3. FC(F)(F)c1cc(N/N=C/c2ccc3c(c2)CCO3)c2cccc(C(F)(F)F)c2n1
4. N#Cc1cccc(NC(=O)NNc2cc(C(F)(F)F)nc3c(C(F)(F)F)cccc23)c1
5. CCCCCCC/C=N/Nc1cc(C(F)(F)F)nc2c(C(F)(F)F)cccc12
6. COc1ccc2[nH]cc(/C=N/Nc3cc(C(F)(F)F)nc4c(C(F)(F)F)cccc34)c2c1
7. Cc1nc[nH]c1/C=N/Nc1cc(C(F)(F)F)nc2c(C(F)(F)F)cccc12
8. FC(F)(F)c1cc(N/N=C/c2cccnc2)c2cccc(C(F)(F)F)c2n1

*A*
1. 12.5
2. 6.25
3. 12.5
4. 50
5. 12.5
6. 6.25
7. 6.25
8. 6.25

// for each compound below, give its MIC
1. O=C(NNc1cc(C(F)(F)F)nc2c(C(F)(F)F)cccc12)Nc1ccc(F)cc1
2. FC(F)C(F)(F)Oc1cccc(/C=N/Nc2cc(C(F)(F)F)nc3c(C(F)(F)F)cccc23)c1
3. Cc1cc(C)cc(NC(=O)NNc2cc(C(F)(F)F)nc3c(C(F)(F)F)cccc23)c1
4. FC(F)(F)c1cc(N/N=C/c2cccs2)c2cccc(C(F)(F)F)c2n1

*A*
1: 12.5; 2: 6.25; 3: 6.25; 4: 50

---

Please provide measured log10(MIC) for the entries that follow.
test system: Mycobacterium tuberculosis; experiment: Antituberculosis activity against Mycobacterium tuberculosis H37Rv ATCC 27294 after 7 days using resazurin dye by broth microdilution assay; type: functional; conditions: H37Rv ATCC 27294, 168 h
Would you kindly interpret these values as log10 of MIC expressed in µM?

These solved cases illustrate the format of a correct answer.
- COc1ccc(/C=N/Nc2cc(C(F)(F)F)nc3c(C(F)(F)F)cccc23)cc1O: 1.10
- Cc1cccc2c(/C=N/Nc3cc(C(F)(F)F)nc4c(C(F)(F)F)cccc34)c[nH]c12: 0.80
- N#Cc1cccc(NC(=O)NNc2cc(C(F)(F)F)nc3c(C(F)(F)F)cccc23)c1: 1.40
- FC(F)(F)c1cc(N/N=C/C2CCCCC2)c2cccc(C(F)(F)F)c2n1: 0.80

Please give log10(MIC), item by item, for the list that follows.
1. NNC(=O)c1ccncc1
2. Cc1nc[nH]c1/C=N/Nc1cc(C(F)(F)F)nc2c(C(F)(F)F)cccc12
3. Cc1cc(C)cc(NC(=O)NNc2cc(C(F)(F)F)nc3c(C(F)(F)F)cccc23)c1
4. COCCNC(=S)NNc1cc(C(F)(F)F)nc2c(C(F)(F)F)cccc12
5. FC(F)(F)c1cc(N/N=C/c2c[nH]cn2)c2cccc(C(F)(F)F)c2n1
6. FC(F)C(F)(F)Oc1cccc(/C=N/Nc2cc(C(F)(F)F)nc3c(C(F)(F)F)cccc23)c1
7. COc1ccc(/C=N/Nc2cc(C(F)(F)F)nc3c(C(F)(F)F)cccc23)c(F)c1

*A*
0.18
0.49
0.80
1.40
0.49
1.10
0.80

Would you mind giving log10(MIC) for every compound in the list below?
1. COc1ccccc1NC(=O)NNc1cc(C(F)(F)F)nc2c(C(F)(F)F)cccc12
2. FC(F)(F)c1cc(N/N=C/c2cccnc2)c2cccc(C(F)(F)F)c2n1
3. O=C(NNc1cc(C(F)(F)F)nc2c(C(F)(F)F)cccc12)Nc1ccc(F)cc1
4. COc1ccc2[nH]cc(/C=N/Nc3cc(C(F)(F)F)nc4c(C(F)(F)F)cccc34)c2c1
5. CO[C@H]1/C=C/O[C@@]2(C)Oc3c(C)c(O)c4c(O)c(c(/C=N/N5CCN(C)CC5)c(O)c4c3C2=O)NC(=O)/C(C)=C\C=C\[C@H](C)[C@H](O)[C@@H](C)[C@@H](O)[C@@H](C)[C@H](OC(C)=O)[C@@H]1C
6. CCCCCCC/C=N/Nc1cc(C(F)(F)F)nc2c(C(F)(F)F)cccc12

*A*
1: 1.10; 2: 1.10; 3: 1.10; 4: 1.40; 5: -0.30; 6: 0.80

# batch size: 3; output log10(MIC) per entry
1. CCCCCNC(=O)NNc1cc(C(F)(F)F)nc2c(C(F)(F)F)cccc12
2. Cn1cc(Cl)c(/C=N/Nc2cc(C(F)(F)F)nc3c(C(F)(F)F)cccc23)n1
3. FC(F)(F)c1cc(N/N=C/c2ccc3c(c2)CCO3)c2cccc(C(F)(F)F)c2n1

*A*
1: 1.40; 2: 0.80; 3: 1.40

Batch lookup, log10(MIC) per entry.
1. Cn1cccc1/C=N/Nc1cc(C(F)(F)F)nc2c(C(F)(F)F)cccc12
2. FC(F)(F)Oc1cccc(/C=N/Nc2cc(C(F)(F)F)nc3c(C(F)(F)F)cccc23)c1

*A*
1.10
1.10

List log10(MIC) for every entry below, keeping the order given.
1. FC(F)(F)c1cc(N/N=C/c2ccc3nonc3c2)c2cccc(C(F)(F)F)c2n1
2. Cn1nnc2cc(/C=N/Nc3cc(C(F)(F)F)nc4c(C(F)(F)F)cccc34)ccc21

*A*
[1.10, 1.10]
